- test_target: T1, human TNF-α (human, UniProt P01375 77-233, biotin label in the ELISA (site not stated); unlabelled in the L929 bioassay)
- T1 construct: also called hTNF; hTNF-α
- T1 sequence (P01375 77-233 R107D limits assumed): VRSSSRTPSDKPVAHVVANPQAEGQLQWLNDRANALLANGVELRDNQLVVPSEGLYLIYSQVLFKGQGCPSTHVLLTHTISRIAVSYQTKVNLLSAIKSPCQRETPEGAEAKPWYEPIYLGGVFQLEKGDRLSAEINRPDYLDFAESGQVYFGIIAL
- protocol_description: ELISA; IgG captured on goat anti-human IgG-Fc, serially diluted biotinylated human TNF, streptavidin-HRP
measurement_label: EC50 (nM)
Write it as a number; the unit nM goes unstated.

Consider AE11-5 AM4 (antibody, V domains shown, Full length IgG converted from scFv clone J703M1S3#30; Human IgG1 (hCg1,z,non-a,mut(234,235)) with human kappa; also called J703M1S3#30) VH: EVQLVQSGAEVKKPGSSVKVSCKASGGTFSWYAISWVRQAPGQGLEWMGGITPILGSPIYAQKFQGRVTITADESTSTVYMELSSLRSEDTAVYYCARGVYYDPKRADYWGQGTLVTVSS VL: EIVLTQSPDFQSVTPKEKVTITCRASQRIGSSLHWYQQKPDQSPKLLIKHASQSVSGVPSRFSGSGSGTDFTLTINSLEAEDAATYYCHQSRSSPPPTFGQGTKVEIK . Its measured EC50 is 18.3

Consider AE11-5 AM5 (antibody, V domains shown, Full length IgG converted from scFv clone J703M1S3#33; Human IgG1 (hCg1,z,non-a,mut(234,235)) with human kappa; also called J703M1S3#33) VH: EVQLVQSGAEVKKPGSSVKVSCKASGGTFSWYPISWVRQAPGQGLEWMGGITPILGAGIYAQKFQGRVTITADESTSTVYMELSSLRSEDTAVYYCARGVYYDFKRADYWGQGTLVTVSS VL: EIVLTQSPDFQSVTPKEKVTITCRASQSIGSSLHWYQQKPDQSPKLLIKHASQSTSGVPSRFSGSGSGTDFTLTINSLEAEDAATYYCHQSSSSPPSTFGQGTKVEIK . Its measured EC50 is 17.7

Consider AE11-5 AM1 (antibody, V domains shown, Full length IgG converted from scFv clone J703M1S3#2; Heavy chain plasmid is pHybE-hCg1,z,non-a,mut(234,235), i.e. human IgG1 with mutations at 234 and 235; Light chain plasmid is pHybE-hCk, i.e. human kappa; also called J703M1S3#2) VH: EVQLVQSGAEVKKPGSSVKVSCKASGGTFSWYATSWVRQAPGQGLEWMGGITPILGSPIYAQKFQGRVTITADESTSTVYMELSSLRSEDTAVYYCARGVYYDHRRADYWGQGTLVTVSS VL: EIVLTQSPDFQSVTPKEKVTITCRASQSIGNTLHWYQQKPDQSPKLLIKHVSQSVSGVPSRFSGSGSGTDFTLTINSLEAEDAATYYCHQKVSSPSPTFGQGTKVEIK . Its measured EC50 is 1.06

Consider AE11-5 AM3 (antibody, V domains shown, Full length IgG converted from scFv clone J703M1S3#26; Human IgG1 (hCg1,z,non-a,mut(234,235)) with human kappa; also called J703M1S3#26) VH: EVQLVQSGAEVKKPGSSVKVSCKASGGTFSWYAISWVRQAPGQGLEWMGGITPILGTANYAQKFQGRVTITADESTSTVYMELSSLRSEDTAVYYCARGVYYDPKRADYWGQGTLVTVSS VL: EIVLTQSPDFQSVTPKEKVTITCRASQSIGSRLHWYQQKPDQSPKLLIKHASQSTSGVPSRFSGSGSGTDFTLTINSLEAEDAATYYCHQSGSSPPRTFGQGTKVEIK . Its measured EC50 is 1.57

Consider AE11-5 AM10 (antibody, V domains shown, Full length IgG converted from scFv clone J703M1S3#90; Human IgG1 (hCg1,z,non-a,mut(234,235)) with human kappa; also called J703M1S3#90) VH: EVQLVQSGAEVKKPGSSVKVSCKASGGTFSWYAISWVRQAPGQGLEWMGGITPILGSPIYAQKFQGRVTITADESTSTVYMELSSLRSEDTAVYYCARGVYYDYKRADYWGQGTLVTVSS VL: EIVLTQSPDFQSVTPKEKVTITCRASQSIGSNLHWYQQKPDQSPKLLIKHASQSISGVPSRFSGSGSGTDFTLTINSLEAEDAATYYCHQTRTSPPLTFGQGTKVEIK . Its measured EC50 is 0.98

Consider AE11-5 AM8 (antibody, V domains shown, Full length IgG converted from scFv clone J703M1S3#38; Human IgG1 (hCg1,z,non-a,mut(234,235)) with human kappa; also called J703M1S3#38) VH: EVQLVQSGAEVKKPGSSVKVSCKASGGTFSWYAISWVRQAPGQGLEWMGGITPILGTPIYAQKFQGRVTITADESTSTVYMELSSLRSEDTAVYYCARGVYYDFKRADYWGQGTLVTVSS VL: EIVLTQSPDFQSVTPKEKVTITCRASQTIGSSLHWYQQKPDQSPKLLIKHASQSISGVPSRFSGSGSGTDFTLTINSLEAEDAATYYCHQSSSSPPPTFGQGTKVEIK . Its measured EC50 is 250

Data provenance is patent US20130164256A1.
